Tested on: H9
Measurement Notes: Antiviral activity against HIV1 3B in H9 lymphocytes
Type: functional, cell-based
Experimental Setup: Homo sapiens
pEC50: −log10 of the molar value.
Value Kind: pEC50

P: C[C@H]1[C@H](C)CC[C@]2(C(=O)O)CC[C@]3(C)C(=CC[C@@H]4[C@@]5(C)CC[C@H](OC(=O)CC(C)(C)C(=O)O)C(C)(C)[C@@H]5CC[C@]43C)[C@H]12
Q: CC(C)C[C@H](NC(=O)[C@]12CCC(C)(C)C=C1[C@H]1CC[C@@H]3[C@@]4(C)CC[C@H](OC(=O)CC(C)(C)C(=O)O)C(C)(C)[C@@H]4CC[C@@]3(C)[C@]1(C)CC2)C(=O)O
R: C=C(C)[C@@H]1CC[C@]2(C)CC[C@]3(C)[C@H](CC[C@@H]4[C@@]5(C)CC[C@H](OC(=O)CC(C)(C)C(=O)O)C(C)(C)[C@@H]5CC[C@]43C)[C@@H]12
S: CC1(C)C=C2[C@H]3CC[C@@H]4[C@@]5(C)CC[C@H](OC(=O)C(C)(C)CC(=O)O)C(C)(C)[C@@H]5CC[C@@]4(C)[C@]3(C)CC[C@@]2(C(=O)NCCCCCCCCCCC(=O)O)CC1
T: C[C@H]1[C@H](C)CC[C@]2(C(=O)O)CC[C@]3(C)C(=CC[C@@H]4[C@@]5(C)CC[C@H](OC(=O)CC(C)(C)CC(=O)O)C(C)(C)[C@@H]5CC[C@]43C)[C@H]12
Put the items above in order of decreasing pEC50. A complete answer lists every label in the requested sequence.
Q, P, T, R, S
